tested on: primary human hepatic stellate cells (donor 1); experiment: scaled lipid accumulation score (0 = DMSO-like, 1 = nortriptyline-like); higher = stronger HSC inactivation (lipid re-accumulation), active = hit call of the paper; settings: library stock concentration: 2 mM; 48 h
Screen size: about 5,800 compounds; about 620 (11%) showed activity.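 How the source made its calls: active = score above a cut-off or among the top three wells of a plate; in these data no inactive exceeds 0.85.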 Shown is part of a subset that was picked to be rich in actives.
Please state which outcome applies, choosing from 1 (active), 0 (inactive)

Recorded call for `CCC(=O)Nc1cccc(Oc2nc(Nc3ccc(N4CCN(C)CC4)cc3OC)ncc2Cl)c1` ? 0

Recorded call for `CNc1nccc(-c2cccnc2Oc2cc(C(=O)Nc3cccc(C(F)(F)F)c3)ccc2C)n1` ? 0

Recorded call for COc1cc(C)c(Sc2cnc(NC(=O)c3ccc(CNC(C)C(C)(C)C)cc3)s2)cc1C(=O)N1CCN(C(C)=O)CC1 (stereo not drawn) ? 0

Recorded call for `CN(C)C/C=C/C(=O)Nc1cc2c(Nc3ccc(F)c(Cl)c3)ncnc2cc1O[C@H]1CCOC1` ? 1

Recorded call for COc1cc(C)c(Sc2cnc(NC(=O)c3ccc(CNC(C)C(C)C)cc3)s2)cc1C(=O)N1CCN(C(C)=O)CC1 (stereo not drawn) ? 0

Recorded call for CN(C)CC=CC(=O)Nc1cc2c(Nc3ccc(F)c(Cl)c3)ncnc2cc1OC1CCOC1 (stereo not drawn) ? 1

Recorded call for `C=CC(=O)Nc1cccc(Oc2nc(Nc3ccc(N4CCN(C)CC4)cc3OC)ncc2Cl)c1` ? 0

Recorded call for `Cc1cn(-c2cc(NC(=O)c3ccc(C)c(Nc4nccc(-c5cccnc5)n4)c3)cc(C(F)(F)F)c2)cn1` ? 0
